// data source = patent US11667649B2

# testSystem: TRKA-wt kinase domain (Homo sapiens, UniProt P04629)
pKi: −log10 of the molar value.
metric: pKi

Solved entries:
{"compound": "CC1Oc2cc(cnc2N)-c2c(cnn2CC(F)F)Cn2ccnc2-c2ccc(F)cc21 (stereo not shown)", "recordedMeasurement": "< 6.30"}
{"compound": "Cc1nc2c(s1)Cc1nnn(CC3CC3)c1-c1cnc(N)c(c1)O[C@H](C)c1cc(F)ccc1-2", "recordedMeasurement": "6.30 to 7.30"}
{"compound": "CCn1ncc2c1-c1cnc(N)c(c1)O[C@H](C)c1cc(F)ccc1-n1ncc(F)c1C2", "recordedMeasurement": "> 7.30"}
{"compound": "CCn1ncc2c1-c1cnc(N)c(c1)O[C@H](C)c1cc(F)ccc1-c1nn(C(C)(C)C)cc1C2", "recordedMeasurement": "6.30 to 7.30"}
{"compound": "C[C@H]1Oc2cc(cnc2N)-c2c(C#N)nnn2Cc2cn(C)nc2-c2ccc(F)cc21", "recordedMeasurement": "< 6.30"}
{"compound": "C[C@H]1Oc2cc(cnc2N)-c2c(C#N)cnn2Cc2cccnc2-c2ccc(F)cc21", "recordedMeasurement": "6.30 to 7.30"}
{"compound": "C[C@H]1Oc2cc(cnc2N)-c2c(c(C#N)nn2CC2CC2)Cc2cccnc2-c2ccc(F)cc21", "recordedMeasurement": "< 6.30"}
{"compound": "C[C@H]1Oc2cc(cnc2N)-c2c(C#N)nnn2Cc2cccnc2-c2ccc(F)cc21", "recordedMeasurement": "< 6.30"}
{"compound": "CC1Oc2cc(cnc2N)-c2c(cnn2C2CCC2)Cn2ccnc2-c2ccc(F)cc21 (stereo not shown)", "recordedMeasurement": "6.30 to 7.30"}
{"compound": "CCn1ncc2c1-c1cnc(N)c(c1)O[C@H](C)c1cc(F)ccc1-c1nn(C)c(Cl)c1C2", "recordedMeasurement": "> 7.30"}

Items follow; give pKi for each.
1. C[C@H]1Oc2cc(cnc2N)-c2c(C#N)noc2Cc2cn(C)nc2-c2ccc(F)cc21
2. CCc1noc2c1-c1cnc(N)c(c1)O[C@H](C)c1cc(F)ccc1-c1nn(C)cc1C2
3. CCn1ncc2c1-c1cnc(N)c(c1)OCc1cc(F)ccc1-n1ncc(F)c1C2
4. CC1Oc2cc(cnc2N)-c2c(n[nH]c2C#N)Cc2cnn(C)c2-c2ccc(F)cc21 (stereo not shown)
5. CCn1ncc2c1-c1cnc(N)c(c1)OC(CO)c1cc(F)ccc1-c1nccn1C2 (stereo not shown)

Result:
< 6.30
> 7.30
< 6.30
< 6.30
< 6.30

Items follow; give pKi for each.
1. CC(C)Cn1ncc2c1-c1cnc(N)c(c1)O[C@H](C)c1cc(F)ccc1-c1nn(C)cc1C2
2. CCn1nnc2c1-c1cnc(N)c(c1)O[C@H](C)c1cc(F)ccc1-c1nc(C)sc1C2
3. CCc1ncn2c1-c1cnc(N)c(c1)O[C@H](C)c1cc(F)ccc1-c1nn(C)cc1C2
4. Cc1nn(CC2CC2)c2c1Cc1cccnc1-c1ccc(F)cc1[C@@H](C)Oc1cc-2cnc1N
5. CCn1nc(C#N)c2c1-c1cnc(N)c(c1)O[C@H](C)c1cc(F)ccc1-c1nn(C)cc1C2
6. C[C@H]1Oc2cc(cnc2N)-c2c(c(Cl)nn2CC2CC2)Cc2cn(C)nc2-c2ccc(F)cc21

Result:
1: < 6.30; 2: 6.30 to 7.30; 3: > 7.30; 4: 6.30 to 7.30; 5: 6.30 to 7.30; 6: < 6.30

* * *

Hi there, I'd appreciate the recorded pKi for every entry that follows.
# testSystem: ALK L1196M/G1202R kinase domain (Homo sapiens, UniProt Q9UM73, G1202R/L1196M)
# Construct: TRKA-wt (1 nM, BPS Bio, 40280) kinase domains in buffer
# assayName: Biochemical kinase assay, ALK L1196M/G1202R
# testConditions: 2 mM ATP substrate solution, read-out: Ki^app ALK-L1196M-G1202R
pKi: −log10 of the molar value.

{"compound": "C[C@H]1Oc2cc(cnc2N)-c2c(C#N)ncn2Cc2cnccc2-c2ccc(F)cc21", "pKi": "> 7.30"}
{"compound": "CCn1nc(C)c2c1-c1cnc(N)c(c1)O[C@H](C)c1cc(F)ccc1-c1nn(C)cc1C2", "pKi": "> 7.30"}
{"compound": "CCn1nnc2c1-c1cnc(N)c(c1)O[C@H](C)c1cc(F)ccc1-c1nn(C)cc1C2", "pKi": "> 7.30"}
{"compound": "C[C@H]1Oc2cc(cnc2N)-c2c(c(C#N)nn2CC2CC2)Cc2cccnc2-c2ccc(F)cc21", "pKi": "> 7.30"}
{"compound": "CC1Oc2cc(cnc2N)-c2c(cnn2C(F)F)Cn2ccnc2-c2ccc(F)cc21 (stereo not shown)", "pKi": "6.30 to 7.30"}

Items follow; give pKi for each.
1. Cc1cc2n(n1)-c1ccc(F)cc1[C@@H](C)Oc1cc(cnc1N)-c1c(C#N)ncn1C2
2. CCn1ncc2c1-c1cnc(N)c(c1)OCc1cc(F)ccc1-n1nccc1C2
3. C[C@H]1Oc2cc(cnc2N)-c2c(C#N)cnn2Cc2cccnc2-c2ccc(F)cc21
4. Cc1nn(CC2CC2)c2c1Cc1c(nn(C)c1Cl)-c1ccc(F)cc1[C@@H](C)Oc1cc-2cnc1N
5. CC1Oc2cc(cnc2N)-c2c(cnn2C2CCC2)Cn2ccnc2-c2ccc(F)cc21 (stereo not shown)
6. Cc1nc2c(s1)Cc1cnn(C(F)F)c1-c1cnc(N)c(c1)O[C@H](C)c1cc(F)ccc1-2

Result:
1: < 6.30; 2: > 7.30; 3: > 7.30; 4: > 7.30; 5: > 7.30; 6: > 7.30

* * *

# testSystem: ALK L1196M/G1202R kinase domain (Homo sapiens, UniProt Q9UM73, G1202R/L1196M)
# Construct: TRKA-wt (1 nM, BPS Bio, 40280) kinase domains in buffer
# assayName: Biochemical kinase assay, ALK L1196M/G1202R
# testConditions: 2 mM ATP substrate solution, read-out: Ki^app ALK-L1196M-G1202R
pKi: −log10 of the molar value.
metric: pKi

Solved entries:
{"smilesNotation": "CCn1ncc2c1-c1cnc(N)c(c1)OCc1cc(F)ccc1-c1nn(C)cc1C2", "testSystem": "ALK L1196M/G1202R kinase domain (Homo sapiens, UniProt Q9UM73, G1202R/L1196M)", "metric": "pKi", "recordedMeasurement": "6.30 to 7.30"}
{"smilesNotation": "C[C@H]1Oc2cc(cnc2N)-c2c(C#N)cnn2Cc2cn(C)nc2-c2ccc(F)cc21", "testSystem": "ALK L1196M/G1202R kinase domain (Homo sapiens, UniProt Q9UM73, G1202R/L1196M)", "metric": "pKi", "recordedMeasurement": "> 7.30"}
{"smilesNotation": "C[C@H]1Oc2cc(cnc2N)-c2c(C#N)nn(C)c2Cc2ccccc2-c2ccc(F)cc21", "testSystem": "ALK L1196M/G1202R kinase domain (Homo sapiens, UniProt Q9UM73, G1202R/L1196M)", "metric": "pKi", "recordedMeasurement": "> 7.30"}
{"smilesNotation": "Nc1ncc2cc1OCc1cc(F)ccc1-n1nc(Cl)cc1Cc1nnn(CC3CC3)c1-2", "testSystem": "ALK L1196M/G1202R kinase domain (Homo sapiens, UniProt Q9UM73, G1202R/L1196M)", "metric": "pKi", "recordedMeasurement": "> 7.30"}

Items follow; give pKi for each.
1. C[C@H]1Oc2cc(cnc2N)-c2c(nnn2CC2CC2)Cc2cc(C(F)F)nn2-c2ccc(F)cc21
2. CCc1nn(C)c2c1-c1cnc(N)c(c1)O[C@H](C)c1cc(F)ccc1-c1nn(C)cc1C2
3. C[C@H]1Oc2cc(cnc2N)-c2c(C#N)nn(C)c2Cc2cc(C(F)(F)F)nn2-c2ccc(F)cc21

Result:
["> 7.30", "> 7.30", "> 7.30"]

Q: # query: pKi of entry CCn1ncc2c1-c1cnc(N)c(c1)O[C@H](C)c1cc(F)ccc1-c1nn(C)c(C)c1C2
Result: > 7.30

* * *

# testSystem: ALK L1196M/G1202R kinase domain (Homo sapiens, UniProt Q9UM73, G1202R/L1196M)
# Construct: TRKA-wt (1 nM, BPS Bio, 40280) kinase domains in buffer
# assayName: Biochemical kinase assay, ALK L1196M/G1202R
# testConditions: 2 mM ATP substrate solution, read-out: Ki^app ALK-L1196M-G1202R
Hi there, I'd appreciate the recorded Ki for every entry that follows.

{"compound": "CCn1ncc2c1-c1cnc(N)c(n1)OC(C)c1cc(F)ccc1-c1c(cnn1C)C2 (stereo not shown)", "testSystem": "ALK L1196M/G1202R kinase domain (Homo sapiens, UniProt Q9UM73, G1202R/L1196M)", "Ki": "50 to 500 nM"}
{"compound": "CC1Oc2cc(cnc2N)-c2c(C#N)cnn2Cc2cnn(C)c2-c2ccc(F)cc21 (stereo not shown)", "testSystem": "ALK L1196M/G1202R kinase domain (Homo sapiens, UniProt Q9UM73, G1202R/L1196M)", "Ki": "50 to 500 nM"}
{"compound": "C[C@H]1Oc2cc(cnc2N)-c2c(C#N)nn(C)c2Cc2scnc2-c2ccc(F)cc21", "testSystem": "ALK L1196M/G1202R kinase domain (Homo sapiens, UniProt Q9UM73, G1202R/L1196M)", "Ki": "< 50 nM"}

Q: // lookup Ki | system=ALK L1196M/G1202R kinase domain (Homo sapiens, UniProt Q9UM73, G1202R/L1196M) | key= C[C@H]1Oc2cc(cnc2N)-c2c(C#N)ncn2Cc2cccnc2-c2ccc(F)cc21
Result: < 50 nM
